Tested on: WPMY1-GM130-SQSTM1
Test: phenotypically active (imaging signature differs from DMSO and reproducible) at any of 0.3-9 uM (binary (1 = active, 0 = inactive)); higher = active
Conditions: treatment time: 24 h
Reported Metric: phenotypically active
Could you respond with only the numeric value?

Compound: CCCCCCCCCCNCCSSCc1ccc(Cl)cc1
phenotypically active: 1
--
Compound: OC[C@H]1O[C@@H](Oc2ccc(O)cc2)[C@H](O)[C@@H](O)[C@@H]1O
phenotypically active: 0
--
Compound: CC(C)c1c(C(=O)Nc2ccccc2)c(-c2ccccc2)c(-c2ccc(F)cc2)n1CC[C@@H](O)C[C@@H](O)CC(=O)O
phenotypically active: 1

Supply measured phenotypically active of COc1c2c(cc3oc(CO)cc(=O)c13)O[C@@H](C(C)(C)O)C2 in your reply. 0

Name the recorded phenotypically active of the item Cc1ccc(-c2cc(C(F)(F)F)nn2-c2ccc(S(N)(=O)=O)cc2)cc1 in your answer. 0

Look up and state reported phenotypically active for CC[C@H](Nc1ncnc2[nH]cnc12)c1nc2cccc(F)c2c(=O)n1-c1ccccc1 0

---

Test system: WPMY1-CANX-COX4
Experiment: phenotypically active (imaging signature differs from DMSO and reproducible) at any of 0.3-9 uM (binary (1 = active, 0 = inactive)); higher = active
Settings: treatment time: 24 h
Counter-ions that a name gives are not always drawn.
Could you please pick one outcome from this set? active, inactive

Molecule: CC(C)C(=O)SCCCCC[C@H](NC(=O)OC(C)(C)C)C(=O)NC12CC3CC(CC(C3)C1)C2
Class Name: inactive

Hi team, can someone confirm the assay call for C[n+]1cccc(C(=O)O)c1 [Trigonelline hydrochloride] ? inactive

In this assay, the call recorded for C[C@@H](Oc1cc(-c2cnn(C3CCNCC3)c2)cnc1N)c1c(Cl)ccc(F)c1Cl [Crizotinib] was what? active

Which outcome did this test record for the molecule COc1cc(OC)c2cc(-c3ccncc3)cnc2c1 [DMPQ dihydrochloride] ? active

State the result this test recorded for N#C/C(=C/c1ccc(O)c(O)c1)C(=O)NCCCCc1ccccc1 . active

Any idea what this test logged for O=c1cc(-c2cccc3c2Sc2ccccc2S3)oc(N2CCOCC2)c1 ? active

How did this test come out for Oc1cc(O)c2c(c1)O[C@H](c1ccc(O)c(O)c1)[C@@H](O)C2 [Epicatechin-(-)] ? inactive

// outcome(item) with item = CCN(CC)c1ccc(/C=N/NC(=O)c2ccncc2)c(O)c1 active

Call for entry CC(=O)[C@H]1CC[C@H]2[C@@H]3C=CC4=CC(=O)CC[C@@]4(C)[C@@H]3CC[C@]12C [dydrogesterone] : inactive

Please let me know the test result on file for Cc1cc2c(F)c(Oc3ncnn4cc(OC[C@@H](C)OC(=O)[C@H](C)N)c(C)c34)ccc2[nH]1 [brivanib-alaninate] . active

Fill in: this test's call for Cc1[nH]c2ccccc2c1CCNC(=O)c1ccccc1F is ___ inactive

// param item: CCOC(=O)Nc1cc(-c2ccc(C)c(NS(C)(=O)=O)c2)nn2c(C)nnc12 [Bromosporine] ; yields the recorded call active

Per the records of this test, what outcome belongs to CC(C)NC[C@H](O)COc1cccc2ccccc12 [(S)-(-)-Propranolol hydrochloride] ? inactive

Dear all, I need the recorded test outcome for NCCC(O)(P(=O)(O)O)P(=O)(O)O [pamidronate] , thank you. inactive

What is the recorded call for this molecule in the test? NC(=O)OCC(COC(N)=O)c1ccccc1 [felbamate] inactive
